Recorded values, source ChEMBL document CHEMBL5518239.

target: UniProt:P09455
Sequence (P09455 whole entry): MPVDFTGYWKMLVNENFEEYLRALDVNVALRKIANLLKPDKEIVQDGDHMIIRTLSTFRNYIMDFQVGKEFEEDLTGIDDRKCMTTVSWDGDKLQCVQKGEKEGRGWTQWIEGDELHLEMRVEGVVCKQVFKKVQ
observation type: Ki (µM)

{"columns": ["molecule", "observation type", "unit tag", "observed result"],
 "data": [
  ["CC(c1cccs1)N(C)Cc1nc(C(c2ccccc2)c2ccccc2)no1 (stereo not drawn)", "Ki", "µM", 7.1],
  ["Cc1ccc(C2(c3noc(CN(C)Cc4cnn(C)c4)n3)CCCC2)cc1", "Ki", "µM", 7.1],
  ["Cc1ccc(C2(c3noc(CN(C)Cc4cccs4)n3)CCCC2)cc1", "Ki", "µM", 7.1]
]}

====

The following compounds have recorded Ki on Fatty acid-binding protein, brain (Homo sapiens, UniProt O15540).
Sequence (O15540 whole entry): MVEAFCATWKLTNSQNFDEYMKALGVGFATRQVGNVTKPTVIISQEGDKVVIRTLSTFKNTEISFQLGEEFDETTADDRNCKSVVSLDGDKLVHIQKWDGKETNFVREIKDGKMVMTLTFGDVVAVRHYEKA
observation type: Ki (µM)

{"columns": ["line notation", "target", "observed result"],
 "data": [
  ["O=C(O)[C@H]1[C@H](c2ccccc2)[C@H](C(=O)Oc2cccc(C3=CCOCC3)c2)[C@H]1c1ccccc1", "Fatty acid-binding protein, brain (Homo sapiens, UniProt O15540)", 0.83],
  ["O=C(O)[C@H]1[C@@H](c2ccccc2)[C@H](C(=O)Oc2cccc3ccccc23)[C@@H]1c1ccccc1", "Fatty acid-binding protein, brain (Homo sapiens, UniProt O15540)", 0.4]
]}

====

The following compounds have recorded Ki on Fatty acid-binding protein, brain (Homo sapiens).

{"columns": ["line notation", "target", "unit tag", "Ki"],
 "data": [
  ["O=C(O)[C@H]1[C@@H](c2ccccc2)[C@H](C(=O)Oc2ccc3ccccc3c2)[C@@H]1c1ccccc1", "Fatty acid-binding protein, brain (Homo sapiens)", "nM", 1300],
  ["O=C(Nc1cccc2ccccc12)[C@H]1[C@H](c2ccccc2)[C@H](C(=O)Nc2cccc3ccccc23)[C@H]1c1ccccc1", "Fatty acid-binding protein, brain (Homo sapiens)", "nM", 3300],
  ["O=C(O)[C@H]1[C@@H](c2ccccc2)[C@H](C(=O)Nc2cccc3ccccc23)[C@@H]1c1ccccc1", "Fatty acid-binding protein, brain (Homo sapiens)", "nM", 1500]
]}

====

target: Fatty acid-binding protein, heart (Homo sapiens, UniProt P05413)
Sequence (P05413 whole entry): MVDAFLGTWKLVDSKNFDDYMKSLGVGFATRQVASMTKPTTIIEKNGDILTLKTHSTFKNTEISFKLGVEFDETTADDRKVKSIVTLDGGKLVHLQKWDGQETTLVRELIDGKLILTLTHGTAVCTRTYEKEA
pKi: −log10 of the molar value.

{"columns": ["line notation", "pKi"],
 "data": [
  ["O=C(O)CCCOc1ccc(F)cc1-c1cc(-c2ccccc2C(F)(F)F)n(-c2ccccc2)n1", 7.62]
]}

====

The following molecules have recorded Kd on Retinol-binding protein 4 (Homo sapiens).

{"columns": ["line notation", "Kd [nM]"],
 "data": [
  ["CC1=C(/C=C/C(C)=C/C=C/C(C)=C/C(=O)NCCO)C(C)(C)CCC1", 131],
  ["CC1=C(/C=C/C(C)=C/C=C/C(C)=C/C(=O)Nc2ccc(N(C)C)cc2)C(C)(C)CCC1", 131]
]}

====

The following compounds have recorded Ki on Fatty acid-binding protein, heart (Homo sapiens).
observation type: Ki

{"columns": ["line notation", "observed result"],
 "data": [
  ["COc1ccccc1[C@H]1[C@H](C(=O)O)[C@H](c2ccccc2OC)[C@H]1C(=O)Oc1ccccc1-c1ccccc1", "1.59 µM"],
  ["O=C(O)[C@H]1[C@@H](c2ccccc2)[C@H](C(=O)Oc2cccc3ccccc23)[C@@H]1c1ccccc1", "3.6 µM"],
  ["O=C(O)[C@H]1[C@@H](c2ccccc2)[C@H](C(=O)Nc2cccc3ccccc23)[C@@H]1c1ccccc1", "2.6 µM"],
  ["O=C(Nc1cccc2ccccc12)[C@H]1[C@H](c2ccccc2)[C@H](C(=O)Nc2cccc3ccccc23)[C@H]1c1ccccc1", "> 10 µM"],
  ["O=C(O)[C@H]1[C@@H](c2ccccc2)[C@H](C(=O)Oc2ccc3ccccc3c2)[C@@H]1c1ccccc1", "3.5 µM"]
]}
